Hi there, I'd appreciate the recorded pIC50 for every entry that follows.
target: recombinant human MetAP2 (Homo sapiens); experiment: Inhibition of recombinant human MetAP2 activity (fluorescence, MAS substrate, amino acid oxidase/Amplex red); conditions: manganese enzyme; 0.75 mM Methionine-Alanine-Serine (MAS) substrate; 30 minutes at 25° C.; pH 7.5; 1% DMSO
pIC50: −log10 of the molar value.

Guide cases for pIC50, answers given:
{"MOLECULE": "CCN1CC[C@H](CNc2ccccc2S(=O)(=O)Nc2ccc3c(c2C(=O)O)OC[C@@H]2C[C@H]32)C1 (mixture of isomers)", "READOUT KIND": "pIC50", "OBSERVED MEASUREMENT": "6.30 to 7.30"}
{"MOLECULE": "CN(C)CCCCCNc1ccccc1S(=O)(=O)Nc1ccc2c(c1C(=O)O)OC[C@@H]1C[C@H]21 (racemic)", "READOUT KIND": "pIC50", "OBSERVED MEASUREMENT": "> 7.30"}
{"MOLECULE": "CCN(CC)CC/C=C\\c1cc(F)ccc1S(=O)(=O)Nc1ccc2c(c1C(=O)O)OCC1CC21 (single isomer, unassigned)", "READOUT KIND": "pIC50", "OBSERVED MEASUREMENT": "6.30 to 7.30"}
{"MOLECULE": "O=C(O)c1c(NS(=O)(=O)c2ccccc2)ccc2c1OC[C@H]1OCC[C@@H]21 (racemic)", "READOUT KIND": "pIC50", "OBSERVED MEASUREMENT": "6.30 to 7.30"}
{"MOLECULE": "CCN1CC[C@H](OCc2cc(F)ccc2S(=O)(=O)Nc2ccc3c(c2C(=O)O)OC[C@@H]2C[C@H]32)C1", "READOUT KIND": "pIC50", "OBSERVED MEASUREMENT": "6.30 to 7.30"}
{"MOLECULE": "CCN1CCC[C@@H]1CCNc1ccccc1S(=O)(=O)Nc1ccc2c(c1C(=O)O)OC[C@@H]1C[C@H]21 (mixture of isomers)", "READOUT KIND": "pIC50", "OBSERVED MEASUREMENT": "> 7.30"}

Now for the molecule whose pIC50 we want.
# input What reported pIC50 corresponds to CCN1CC[C@@H](C(=O)NCc2cc(F)ccc2S(=O)(=O)Nc2ccc3c(c2C(=O)O)OC[C@@H]2C[C@H]32)C1 (mixture of isomers) on recombinant human MetAP2 (Homo sapiens)?
# output 6.30 to 7.30

----------
Hi there, I'd appreciate the recorded pIC50 for every entry that follows.
biological target: recombinant human MetAP2 (Homo sapiens, UniProt P50579); test: Inhibition of recombinant human MetAP2 activity (fluorescence, MAS substrate, amino acid oxidase/Amplex red); conditions: manganese enzyme; 0.75 mM Methionine-Alanine-Serine (MAS) substrate; 30 minutes at 25° C.; pH 7.5; 1% DMSO
Sequence (P50579 whole entry): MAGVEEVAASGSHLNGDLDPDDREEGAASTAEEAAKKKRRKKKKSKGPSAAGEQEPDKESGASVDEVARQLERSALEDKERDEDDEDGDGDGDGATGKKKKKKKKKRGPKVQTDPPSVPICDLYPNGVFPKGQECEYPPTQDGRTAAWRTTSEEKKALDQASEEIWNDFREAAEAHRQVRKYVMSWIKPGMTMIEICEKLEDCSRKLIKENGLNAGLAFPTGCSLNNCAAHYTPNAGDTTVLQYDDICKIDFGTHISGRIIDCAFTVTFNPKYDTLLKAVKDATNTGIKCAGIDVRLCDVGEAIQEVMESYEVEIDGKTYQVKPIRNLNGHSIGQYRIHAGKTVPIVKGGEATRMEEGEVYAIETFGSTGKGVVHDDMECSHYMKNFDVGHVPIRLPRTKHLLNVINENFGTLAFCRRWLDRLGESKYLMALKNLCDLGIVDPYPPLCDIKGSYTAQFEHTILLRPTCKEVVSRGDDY
pIC50: −log10 of the molar value.

Guide cases for pIC50, answers given:
{"COMPOUND": "CCN(CC)CCCc1cc(F)ccc1S(=O)(=O)Nc1ccc2c(c1C(=O)O)OC[C@@H]1C[C@H]21", "OBSERVED MEASUREMENT": "> 7.30"}
{"COMPOUND": "O=C(O)c1c(NS(=O)(=O)c2ccc(F)cc2CCCN2CCCC2)ccc2c1OC[C@H]1OCC[C@@H]21 (racemic)", "OBSERVED MEASUREMENT": "> 7.30"}
{"COMPOUND": "CCN(CC)C/C=C\\c1cc(F)ccc1S(=O)(=O)Nc1ccc2c(c1C(=O)O)OC[C@H]1C[C@@H]21", "OBSERVED MEASUREMENT": "6.30 to 7.30"}

The following compounds each have a reported value; give each one's pIC50.
1. O=C(O)c1c(NS(=O)(=O)c2ccc(F)cc2CCN2CCCC2)ccc2c1OC[C@@H]1C[C@H]21 (racemic)
2. CCN(CC)C/C=C\c1cc(F)ccc1S(=O)(=O)Nc1ccc2c(c1C(=O)O)OCC1C2C1(F)F (racemic)
3. CN(C)CCCNc1ccccc1S(=O)(=O)Nc1ccc2c(c1C(=O)O)OC[C@@H]1C[C@H]21 (racemic)

# output
["6.30 to 7.30", "> 7.30", "> 7.30"]

The following compounds each have a reported value; give each one's pIC50.
1. CCN(CC)CCCc1cc(F)ccc1S(=O)(=O)Nc1ccc2c(c1C(=O)O)OC[C@H]1OCC[C@@H]21 (racemic)
2. CN(C)CCCC(=O)Nc1cc(F)ccc1S(=O)(=O)Nc1ccc2c(c1C(=O)O)OC[C@@H]1C[C@H]21 (racemic)
3. O=C(O)c1c(NS(=O)(=O)c2ccc(F)cc2/C=C\CN2CCCC2)ccc2c1OC[C@@H]1C[C@H]21 (single isomer, unassigned)
4. CCN(CC)CCCNc1ccccc1S(=O)(=O)Nc1ccc2c(c1C(=O)O)OCC1CC21 (stereo not drawn)
5. CCN(CC)C/C=C\c1cc(F)ccc1S(=O)(=O)Nc1ccc2c(c1C(=O)O)OC[C@H]1OCC[C@@H]21 (racemic)

# output
1: 6.30 to 7.30; 2: 6.30 to 7.30; 3: 6.30 to 7.30; 4: > 7.30; 5: > 7.30

----------
molecular target: recombinant human MetAP2 (Homo sapiens); assay: Inhibition of recombinant human MetAP2 activity (fluorescence, MAS substrate, amino acid oxidase/Amplex red); conditions: manganese enzyme; 0.75 mM Methionine-Alanine-Serine (MAS) substrate; 30 minutes at 25° C.; pH 7.5; 1% DMSO
pIC50: −log10 of the molar value.
Hi there, I'd appreciate the recorded pIC50 for every entry that follows.

{"MOLECULE": "CCN1CC[C@@H](NCCc2cc(F)ccc2S(=O)(=O)Nc2ccc3c(c2C(=O)O)OC[C@@H]2C[C@H]32)C1 (mixture of isomers)", "TARGET OR SYSTEM": "recombinant human MetAP2 (Homo sapiens)", "OBSERVED MEASUREMENT": "6.30 to 7.30"}
{"MOLECULE": "CN(C)CCCCNc1ccccc1S(=O)(=O)Nc1ccc2c(c1C(=O)O)OC[C@H]1OCC[C@@H]21 (racemic)", "TARGET OR SYSTEM": "recombinant human MetAP2 (Homo sapiens)", "OBSERVED MEASUREMENT": "6.30 to 7.30"}
{"MOLECULE": "CCN1CCC[C@H]1CCNc1ccccc1S(=O)(=O)Nc1ccc2c(c1C(=O)O)OC[C@@H]1C[C@H]21 (mixture of isomers)", "TARGET OR SYSTEM": "recombinant human MetAP2 (Homo sapiens)", "OBSERVED MEASUREMENT": "> 7.30"}

The following molecules each have a reported value; give each one's pIC50.
1. CCN1CC[C@@H](CNc2ccccc2S(=O)(=O)Nc2ccc3c(c2C(=O)O)OC[C@@H]2C[C@H]32)C1 (mixture of isomers)
2. CCN(CC)CCCCc1cc(F)ccc1S(=O)(=O)Nc1ccc2c(c1C(=O)O)OCC1CC21 (stereo not drawn)

# output
1: 6.30 to 7.30; 2: 6.30 to 7.30

The following molecules each have a reported value; give each one's pIC50.
1. CN(C)CCCCNc1ccccc1S(=O)(=O)Nc1ccc2c(c1C(=O)O)OC[C@@H]1C[C@H]21 (racemic)
2. CCN1CC(c2cc(F)ccc2S(=O)(=O)Nc2ccc3c(c2C(=O)O)OC[C@@H]2C[C@H]32)C1 (racemic)
3. CCN1CC[C@H](C(=O)NCc2cc(F)ccc2S(=O)(=O)Nc2ccc3c(c2C(=O)O)OCC2CC32)C1 (mixture of isomers)
4. O=C(O)c1c(NS(=O)(=O)c2ccc(F)cc2CCCN2CCC2)ccc2c1OCC1CC21 (stereo not drawn)
5. CCNC/C=C\c1cc(F)ccc1S(=O)(=O)Nc1ccc2c(c1C(=O)O)OC[C@@H]1C[C@H]21 (single isomer, unassigned)
6. CCN1CCC[C@@H]1C(=O)N(C)Cc1cc(F)ccc1S(=O)(=O)Nc1ccc2c(c1C(=O)O)OCC1CC21 (mixture of isomers)
7. CCN(CC)CC/C=C\c1cc(F)ccc1S(=O)(=O)Nc1ccc2c(c1C(=O)O)OCC1CC21 (single isomer, unassigned)

# output
1: > 7.30; 2: 6.30 to 7.30; 3: 6.30 to 7.30; 4: 6.30 to 7.30; 5: > 7.30; 6: 6.30 to 7.30; 7: 6.30 to 7.30

----------
target: recombinant human MetAP2 (Homo sapiens); test: Inhibition of recombinant human MetAP2 activity (fluorescence, MAS substrate, amino acid oxidase/Amplex red); details: manganese enzyme; 0.75 mM Methionine-Alanine-Serine (MAS) substrate; 30 minutes at 25° C.; pH 7.5; 1% DMSO
pIC50: −log10 of the molar value. Where a name gives a salt, the structure may show the parent alone.
READOUT KIND: pIC50

Guide cases for pIC50, answers given:
{"COMPOUND": "CCN1CC[C@H](Nc2ccccc2S(=O)(=O)Nc2ccc3c(c2C(=O)O)OC[C@@H]2C[C@H]32)C1 (mixture of isomers)", "pIC50": "6.30 to 7.30"}
{"COMPOUND": "CCN1CCCC1C(=O)NCc1cc(F)ccc1S(=O)(=O)Nc1ccc2c(c1C(=O)O)OCC1CC21 (mixture of isomers)", "pIC50": "> 7.30"}
{"COMPOUND": "O=C(O)c1c(NS(=O)(=O)c2ccc(F)cc2/C=C\\CN2CCC2)ccc2c1OC[C@@H]1C[C@H]21 (racemic)", "pIC50": "6.30 to 7.30"}
{"COMPOUND": "CCN1CCN(CCc2cc(F)ccc2S(=O)(=O)Nc2ccc3c(c2C(=O)O)OC[C@@H]2C[C@H]32)CC1 (racemic)", "pIC50": "6.30 to 7.30"}

The following compounds each have a reported value; give each one's pIC50.
1. CCN1CCN(Cc2cc(F)ccc2S(=O)(=O)Nc2ccc3c(c2C(=O)O)OC[C@@H]2C[C@H]32)C(=O)C1 (racemic)
2. O=C(O)c1c(NS(=O)(=O)c2ccccc2)ccc2c3c(cnc12)OCC3 [formate salt]
3. CCN1CC[C@@H](Cc2cc(F)ccc2S(=O)(=O)Nc2ccc3c(c2C(=O)O)OC[C@@H]2C[C@H]32)C1 (mixture of isomers)

# output
1: 6.30 to 7.30; 2: > 7.30; 3: > 7.30

The following compounds each have a reported value; give each one's pIC50.
1. CN(C)CCCCN(C)c1ccccc1S(=O)(=O)Nc1ccc2c(c1C(=O)O)OC[C@@H]1C[C@H]21 (racemic)
2. O=C(O)c1c(NS(=O)(=O)c2ccc(F)cc2/C=C\CN2CCCC2)ccc2c1OC[C@@H]1C[C@H]21 (single isomer, unassigned)
3. CCN1CCCC(Cc2cc(F)ccc2S(=O)(=O)Nc2ccc3c(c2C(=O)O)OC[C@@H]2C[C@H]32)C1 (some centres unmarked)
4. CN(C)CCCCNc1cc(F)ccc1S(=O)(=O)Nc1ccc2c(c1C(=O)O)OC[C@@H]1C[C@H]21 (racemic)
5. CCN(CC)C/C(C)=C\c1cc(F)ccc1S(=O)(=O)Nc1ccc2c(c1C(=O)O)OC[C@@H]1C[C@H]21 (racemic)
6. CCN(CC)C/C=C\c1cc(F)ccc1S(=O)(=O)Nc1ccc2c(c1C(=O)O)OC[C@@H]1C[C@H]21
7. CCN1CC[C@@H](Cc2cc(F)ccc2S(=O)(=O)Nc2ccc3c(c2C(=O)O)OC[C@@H]2C[C@H]32)C1 (single isomer, unassigned)

# output
1: < 6.30; 2: 6.30 to 7.30; 3: 6.30 to 7.30; 4: 6.30 to 7.30; 5: > 7.30; 6: > 7.30; 7: > 7.30

The following compounds each have a reported value; give each one's pIC50.
1. CCN1CCC(Cc2cc(F)ccc2S(=O)(=O)Nc2ccc3c(c2C(=O)O)OC[C@@H]2C[C@H]32)CC1 (racemic)
2. CCN1CC[C@@H](CCNc2ccccc2S(=O)(=O)Nc2ccc3c(c2C(=O)O)OC[C@@H]2C[C@H]32)C1 (mixture of isomers)
3. CCN1CC(CCc2cc(F)ccc2S(=O)(=O)Nc2ccc3c(c2C(=O)O)OC[C@@H]2C[C@H]32)C1 (racemic)

# output
["> 7.30", "6.30 to 7.30", "6.30 to 7.30"]

These data points were gathered from patent US9617237B2.
